Molecular target: nicotinic acetylcholine receptor (Torpedo nAChR, α2βγδ), α subunit (Tetronarce californica, UniProt P02710+P02712+P02714+P02718)
Sequence (P02710 25-461): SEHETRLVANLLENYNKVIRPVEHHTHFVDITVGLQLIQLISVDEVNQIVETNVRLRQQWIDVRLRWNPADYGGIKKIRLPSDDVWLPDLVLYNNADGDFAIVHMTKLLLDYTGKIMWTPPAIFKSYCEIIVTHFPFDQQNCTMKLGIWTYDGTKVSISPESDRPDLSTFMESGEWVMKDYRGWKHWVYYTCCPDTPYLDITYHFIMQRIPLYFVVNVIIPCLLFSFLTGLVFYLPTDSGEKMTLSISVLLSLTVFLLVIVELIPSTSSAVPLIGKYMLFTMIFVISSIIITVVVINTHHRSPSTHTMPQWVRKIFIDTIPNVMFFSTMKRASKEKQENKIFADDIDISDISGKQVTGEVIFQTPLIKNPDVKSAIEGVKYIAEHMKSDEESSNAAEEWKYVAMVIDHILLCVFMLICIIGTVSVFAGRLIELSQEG
Sequence (P02712 25-493): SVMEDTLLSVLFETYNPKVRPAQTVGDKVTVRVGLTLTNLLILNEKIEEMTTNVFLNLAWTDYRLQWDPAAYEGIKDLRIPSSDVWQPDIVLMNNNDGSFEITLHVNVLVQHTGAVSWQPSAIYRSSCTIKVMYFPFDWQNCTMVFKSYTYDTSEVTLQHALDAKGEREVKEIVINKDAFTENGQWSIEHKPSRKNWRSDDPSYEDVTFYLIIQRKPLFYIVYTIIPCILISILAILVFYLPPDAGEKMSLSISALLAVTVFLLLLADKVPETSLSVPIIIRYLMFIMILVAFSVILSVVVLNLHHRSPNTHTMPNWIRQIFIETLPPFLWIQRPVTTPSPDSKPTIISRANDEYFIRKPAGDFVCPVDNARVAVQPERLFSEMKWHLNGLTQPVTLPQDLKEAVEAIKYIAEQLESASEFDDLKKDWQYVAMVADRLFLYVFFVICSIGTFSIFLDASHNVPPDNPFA
Sequence (P02714 18-506): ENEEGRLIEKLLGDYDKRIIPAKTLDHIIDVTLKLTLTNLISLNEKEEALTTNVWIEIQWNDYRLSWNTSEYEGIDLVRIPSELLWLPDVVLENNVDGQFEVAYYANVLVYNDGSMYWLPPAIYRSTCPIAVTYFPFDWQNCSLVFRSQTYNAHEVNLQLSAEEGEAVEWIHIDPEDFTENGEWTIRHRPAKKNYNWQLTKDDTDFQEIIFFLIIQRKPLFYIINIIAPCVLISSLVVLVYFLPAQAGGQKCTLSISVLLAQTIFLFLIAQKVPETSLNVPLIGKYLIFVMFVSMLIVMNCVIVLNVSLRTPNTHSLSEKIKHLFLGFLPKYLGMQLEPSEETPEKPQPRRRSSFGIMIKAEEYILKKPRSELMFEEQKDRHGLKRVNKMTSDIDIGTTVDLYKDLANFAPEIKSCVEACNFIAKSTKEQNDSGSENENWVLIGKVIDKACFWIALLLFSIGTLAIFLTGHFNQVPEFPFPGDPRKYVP
Sequence (P02718 22-522): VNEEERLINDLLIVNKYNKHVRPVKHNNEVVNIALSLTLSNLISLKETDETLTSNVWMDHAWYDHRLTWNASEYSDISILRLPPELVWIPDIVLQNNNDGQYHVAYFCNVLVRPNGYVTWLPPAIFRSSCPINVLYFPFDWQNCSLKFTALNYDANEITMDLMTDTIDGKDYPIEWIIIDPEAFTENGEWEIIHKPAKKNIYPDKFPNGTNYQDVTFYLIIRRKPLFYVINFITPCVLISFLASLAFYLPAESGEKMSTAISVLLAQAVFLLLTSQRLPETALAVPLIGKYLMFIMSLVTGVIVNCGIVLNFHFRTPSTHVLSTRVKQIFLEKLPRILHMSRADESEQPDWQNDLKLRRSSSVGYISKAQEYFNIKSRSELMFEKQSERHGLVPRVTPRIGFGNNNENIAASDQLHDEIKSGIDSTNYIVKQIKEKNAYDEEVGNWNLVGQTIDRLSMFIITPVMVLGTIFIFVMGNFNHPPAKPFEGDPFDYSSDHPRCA
Assay: [3H]PCP radioligand displacement
Assay type: binding
Measured Attribute: IC50 (nM)
I only need the number, in nM, no unit after it.

*Q* Respond only with IC50 recorded for "CN(C)CCCN1c2ccccc2Sc2ccc(Cl)cc21"
*A* 2300
